Sourced from the supplement of paper PMC10567573

B1: DVL3 (parent)
chain: YNPHPGFPELGYSYGGGSASSQHS

Variants of: B1
assay_method_text: protein stability index of a GFP-peptide fusion (GPS, HEK-293T) (PSI 1-6); higher = more stable;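 further: lentivirally expressed fusions sorted by FACS into six bins by GFP to DsRed ratio, PSI derived from sequencing read proportions per bin multiplied by bin number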
applied_conditions: c terminus: a fixed tail appended
readout_kind: protein stability index
One number for each entry.

mutant_name: Y1K
result_number: 3.94
//
mutant_name: N2L
result_number: 2.16
//
mutant_name: F7R
result_number: 2.86
//
mutant_name: G16K
result_number: 2.93
//
mutant_name: F7N
result_number: 3.38
//
mutant_name: N2P
result_number: 1.97
//
mutant_name: G11T
result_number: 2.76
//
mutant_name: H23D
result_number: 3.14

Working through the 3 variants below one at a time, give protein stability index for each.
1. Y12N
2. P8C
3. P5W

result:
1. 3.96
2. 2.54
3. 2.2
